Provenance of the data: patent US20030059788A1

Test system: HepG2 cells
assay: cell viability test (MTT), concentration corresponding to an IC80
Assay type: cell-based
I'd be grateful if you could share measured IC80 for these entries.
// return numeric value only (unit: µM, not printed)

Value (IC80, HepG2 cells) for record O=c1[nH]cc(F)c(=O)[nH]1 [5 FU] = 10

// IC80 (HepG2 cells) for N#CC(C#N)=NNc1ccc(OC(F)(F)F)cc1 [FCCP] = 5
